# credit: PubChem BioAssay

Catalogue of z-score values
Assay: modulators of S6 phosphorylation in cells, primary screen, cell-based, A549, cytoblot, luminescence, serum-stimulated (AID 1158);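 further: serum-stimulated A549 lung adenocarcinoma cells; signal is phosphorylated S6 detected by cytoblot immunostaining with HRP secondary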
Conditions: A549 phospho-S6 cytoblot, 5 h, higher = more signal
Give only the figure.

Some solved entries appear below for comparison.
# MOLECULE, TEST_RESULT
rows = [
    ("CO[C@H]1COC(=O)CC=C[C@H](C)[C@@H](OC)COC(=O)[C@H](Cc2ccccc2)NC(=O)CC=C[C@@H]1C", 0.659),
    ("CCc1cccc(NC(=O)O[C@H]2[C@H](OC(=O)Nc3ccccc3)[C@@H](OC(=O)Nc3ccccc3)[C@@H](OC)O[C@@H]2CO)c1", 0.211),
    ("CO[C@]12C=C(Br)[C@@H](C[C@@H]1c1ccccc1)[C@@]1(CO1)C2=O", 0.716),
]

q: Which measured z-score value corresponds to `[N-]=[N+]=NCc1ccccc1[C@H]1OC(c2ccc(OCCCO)cc2)=N[C@@]1(Cc1ccccc1N=[N+]=[N-])C(=O)NCc1ccccc1` ?
a: -0.0679

q: Which measured z-score value corresponds to `C=C(COC)/C(=C/C[C@@H](OC(=O)c1ccncc1)c1ccc(OCCO)cc1)c1cc(C(=O)OC)ccc1OC` ?
a: 0.866

q: Which measured z-score value corresponds to `COCCOC(=O)N1C(=O)[C@@]2(c3cc(C#CC4=CCCCC4)ccc31)[C@H](C(=O)NC[C@H](O)c1ccccc1)[C@H]1C(=O)O[C@H](c3ccccc3)[C@H](c3ccccc3)N1[C@@H]2c1ccccc1OCCO` ?
a: -0.178

q: Which measured z-score value corresponds to `COCCOC(=O)N1C(=O)[C@@]2(c3cc(C#CCNC(N)=O)ccc31)[C@H](c1ccc(OCCO)cc1)N1[C@H](c3ccccc3)[C@H](c3ccccc3)OC(=O)[C@H]1[C@@H]2C(=O)Nc1nc2ccccc2s1` ?
a: 0.652

q: Which measured z-score value corresponds to COC(=O)C1=CC(c2ccc(CO)cc2)=CC(C2CC2)N(Cc2sc3ccccc3c2Cl)C=C1C(=O)OC (stereo not drawn) ?
a: 0.983
